assay: Test 8: acute toxicity in vivo, ICFW mice; details: mouse, ICFW, IP, read-out: LD 500
recorded-metric: LD50 (mg/kg)
Your answer is read as mg/kg, so omit the unit and give the number.

Supply measured LD50 of CCN(CC)CCCNc1nccc2c(C)c3[nH]c4ccncc4c3cc12 in your reply.
15

###

assay: Test 4: toxicity on new-born mice, IP; type: in vivo, mouse; details: mouse, in vivo, 5 μg: 2.5 mg/kg, read-out: dead mice (converted)
recorded-metric: mortality (%)
Write the value in % as a bare number.

Supply measured mortality of Cc1c2cc[n+](C)cc2c(C)c2c1[nH]c1ccc(O)cc12 [HUM, reference compound] in your reply.
37.5

###

assay: Test 4: toxicity on adult F1 mice, IP; conditions: mouse, in vivo, ip, 40 mg/kg
recorded-metric: mortality (%)
The reply should contain only the number, in %.

Look up and state reported mortality for Cc1c2ccncc2c(C)c2c1[nH]c1ccncc12
12.5

###

Assay: Test 4: toxicity on adult F1 mice, IP
Settings: mouse, in vivo, ip, 80 mg/kg
Text: Test 4: Investigation of the toxicity The toxic dose has been sought, on adult ([…]×DBA/2) Fl mice and on new-born mice, of the compounds of the invention by injection by the IP route. The results obtained are given hereinafter: 1- On adult F1 mice (C 57 BL 6×DBA/2)F1 (IP route)
recorded-metric: mortality (%)
// return numeric value only (unit: %, not printed)

Please look at this compound and report its mortality: Cc1c2ccncc2c(C)c2c1[nH]c1ccncc12 [Example 1]
83.3

###

assay: Test 4: toxicity on adult F1 mice, IP; conditions: in vivo; 0.6 mg/mouse (30 mg/kg), IP; read-out: dead mice (converted)
recorded-metric: mortality (%)
Only the number, expressed in %, is required.

Please report mortality for the following compound: CCN(CC)CCCNc1nccc2c(C)c3[nH]c4ccncc4c3cc12
50

###

Test: Test 4: toxicity on adult F1 mice, IP
Details: mouse, in vivo; adult F1 mice, IP
Excerpt: Test 4: Investigation of the toxicity The toxic dose has been sought, on adult ([…]×DBA/2) Fl mice and on new-born mice, of the compounds of the invention by injection by the IP route. The results obtained are given hereinafter: 1- On adult F1 mice (C 57 BL 6×DBA/2)F1 (IP route)
recorded-metric: LD50 (mg/kg)
I only need the number, in mg/kg, no unit after it.

Answer with reported LD50 of CCN(CC)CCCNc1nccc2c(C)c3[nH]c4ccncc4c3cc12
30

Each recorded value in this set is attributed to patent US4444776A.
